Molecular target: Hypoxia-inducible factor 1-alpha (Homo sapiens) (UniProt Q16665)
Sequence (Q16665 whole entry, looked up): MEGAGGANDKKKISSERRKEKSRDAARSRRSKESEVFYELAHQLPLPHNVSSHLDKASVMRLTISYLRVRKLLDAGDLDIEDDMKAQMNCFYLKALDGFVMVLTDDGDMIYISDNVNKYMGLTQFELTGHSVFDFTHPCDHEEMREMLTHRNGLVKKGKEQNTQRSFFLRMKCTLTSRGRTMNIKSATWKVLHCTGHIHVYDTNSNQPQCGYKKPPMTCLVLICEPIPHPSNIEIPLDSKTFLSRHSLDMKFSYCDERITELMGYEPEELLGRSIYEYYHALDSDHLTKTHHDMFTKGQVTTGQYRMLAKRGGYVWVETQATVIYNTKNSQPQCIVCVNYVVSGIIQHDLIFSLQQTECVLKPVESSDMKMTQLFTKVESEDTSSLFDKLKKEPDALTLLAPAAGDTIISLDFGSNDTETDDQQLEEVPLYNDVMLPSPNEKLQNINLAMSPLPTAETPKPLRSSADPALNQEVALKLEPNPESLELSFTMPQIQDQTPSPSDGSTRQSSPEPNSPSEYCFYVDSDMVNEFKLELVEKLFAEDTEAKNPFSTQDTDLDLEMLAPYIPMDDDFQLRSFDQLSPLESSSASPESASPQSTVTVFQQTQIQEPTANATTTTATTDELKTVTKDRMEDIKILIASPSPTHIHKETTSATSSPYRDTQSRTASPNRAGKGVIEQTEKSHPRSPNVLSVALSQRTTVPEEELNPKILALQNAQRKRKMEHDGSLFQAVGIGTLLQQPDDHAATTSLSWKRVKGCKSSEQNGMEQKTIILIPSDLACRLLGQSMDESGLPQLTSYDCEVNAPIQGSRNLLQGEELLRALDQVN
Experiment: activators of HIF1alpha nuclear accumulation, confirmation, imaging, fluorescence, U2OS GFP-HIF1alpha (AID 434951)
Details: U2OS GFP-HIF1alpha nuclear intensity, high-content imaging
The source made the active and inactive calls.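 How the source made its calls: active means a fitted half-maximal concentration EC50 for the rise in nuclear signal no higher than ten times the top dose tested; inconclusive means flat fit with activity between 30% and 70%, or unusable fit; inactive means EC50 beyond ten times the top dose.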
Permitted responses: t for active, f for inactive

STRUCTURE_SMILES	CATEGORY_LABEL
Cc1cccc(NC(=O)Cc2noc3ccccc23)c1	f
COc1cccc(/C=N/Nc2ccc([N+](=O)[O-])cn2)c1O	t

Moving on to another molecule below.
Input line: Assay outcome for O=C(COc1ccc(Cl)cc1Cl)N/N=C/CCc1ccccc1 : what was it?
Output line: f
